# Tested on: KM20L2 colon
# assayText: NCI tumour cell line growth inhibition, 48 h
measure: TGI

Noted for COc1ccc(C=NC23CC4CC(CC(C4)C2)C3)cc1 : its TGI reads > 100 µM

Noted for O=C(N/N=C/c1cc(Br)cc(Br)c1[O-])c1ccccc1O.O=C(N/N=C/c1cc(Br)cc(Br)c1[O-])c1ccccc1O.[Mn+2] : its TGI reads 21.3 µM

Noted for Cc1ccc(S(=O)(=O)OCC23CCC(C4CC42)C2CC23)cc1 (stereo not given) : its TGI reads > 100 µM

Noted for Cc1cccc(C)c1NC(=O)C(=O)CC(=O)CO : its TGI reads > 100 µM

Noted for CCCN(CCC)C(=O)Cc1c2n(c3ccccc13)Cc1ccccc1-2 : its TGI reads > 100 µM

* * *

# Test system: MCF7 breast
# assayText: NCI tumour cell line growth inhibition, 48 h
measure: TGI

Noted for O=C(/C=C/c1ccc(Cl)c(Cl)c1)CCN1CCN(CCC(=O)/C=C/c2ccc(Cl)c(Cl)c2)CC1 : its TGI reads 19.4 µM

Noted for C=C(Br)C(Cl)(CBr)CCC(Br)C(C)(C)Cl (stereo not drawn) : its TGI reads > 10 µM

Noted for CC(=O)Oc1cccc2c1C(=O)C(Br)(Br)CCC2 : its TGI reads 5.71 µM

Noted for O=C(COC(=O)c1ccccc1)c1ccc(Br)cc1 : its TGI reads 24.8 µM

Noted for C=C1CC(CNc2cc(Cl)nc(N)n2)C1 : its TGI reads > 100 µM

Noted for Cc1ccc(C(=O)N/N=C/c2cccc(Oc3ccccc3)c2)cn1 : its TGI reads > 100 µM

Noted for CCC(/C=C/c1ccccc1)=N\NC(=S)N/N=C(/C=C/c1ccccc1)CC : its TGI reads > 100 µM

Noted for O=[N+]([O-])C(=C/C1CCCCC1)/C(=C\C1CCCCC1)[N+](=O)[O-] : its TGI reads 26.4 µM

Noted for Fc1ccc(-c2nnc3sc(-c4cccc(Cl)c4)nn23)cc1Cl : its TGI reads > 100 µM

Noted for N#Cc1nc(Cc2ccccc2)oc1N : its TGI reads > 100 µM

Noted for COc1ccc(/C=C(\C#N)c2cc(OC)c3c(c2)OCO3)cc1 : its TGI reads 19.8 µM

Noted for C=CCC1(O)c2cccc(O)c2C(=O)c2cccc(O)c21 (stereo not drawn) : its TGI reads 76.9 µM

Noted for COc1ccc(CN=C2Nc3ccncc3S(=O)(=O)N2c2ccccc2)cc1 : its TGI reads > 100 µM

Noted for OCC1CCCCN1Cc1nc2ccc(Cl)cc2[nH]1 (stereo not drawn) : its TGI reads > 100 µM

Noted for C=CCOc1ccc(C2c3c([nH][nH]c3=O)CC(C)(O)C2C(=O)OC)cc1OC (stereo not drawn) : its TGI reads > 100 µM

Noted for CNC(=O)CNC(=O)CCC(=O)N(C)C : its TGI reads > 100 µM

Noted for c1cncc(CNc2ccccc2-c2nnc(Nc3ccc4c(c3)OCCO4)o2)c1 : its TGI reads > 100 µM

Noted for CCOC(=O)NNC1(SC)NC(=O)c2c(cc(Cl)oc2=O)O1 (stereo not drawn) : its TGI reads 5.84 µM

* * *

Hi there, I'd appreciate the recorded TGI for every entry that follows.
# System: DMS 273 small cell lung
# assayText: NCI tumour cell line growth inhibition, 48 h

Noted for O=C(Nc1nccs1)c1cc(C2=CC=CC([N+](=O)[O-])C=C2)nc(=S)[nH]1 (configuration not stated) : its TGI reads > 100 µM

Noted for Cc1ccc(C2=Nc3ccccc3NC(=O)C2)cc1 : its TGI reads > 100 µM

Noted for COc1ccc(/C=C2\CNC/C(=C\c3ccc(OC)cc3)C2=O)cc1 : its TGI reads > 100 µM

Noted for CC(=O)O[C@@H]1CC(C)C2CC2C2=C(C(O)OC2O)[C@@H]1C(C)CCC=C(C)C (some centres not stated) : its TGI reads 45.3 µM

Noted for CCCC(=O)N[C@@H](Cc1cc(I)c(O)c(I)c1)C(=O)NCCCNCCCCNCCCNC(=O)[C@@H](N)CCCN=C(N)N : its TGI reads > 100 µM

Noted for Cc1c(C(=O)CC(=O)C(=O)Nc2cccc(C(F)(F)F)c2)[n+](=O)c2ccccc2n1[O-] : its TGI reads 10.3 µM

Noted for CC(=S)NNC(=O)c1ccncc1 : its TGI reads > 100 µM

Noted for O[C@]12CCCC[C@H]1CCC2 : its TGI reads > 100 µM

Noted for CCCCC(=O)[O-].N.N.N.N.N.[Co+3].[O-][Cl+3]([O-])([O-])[O-] : its TGI reads > 100 µM

Noted for CCOC(=O)NC(=O)c1cn(CCCOC(=O)CCCCCCCCC(=O)OCCCn2cc(C(=O)NC(=O)OCC)c(=O)[nH]c2=O)c(=O)[nH]c1=O : its TGI reads 66.6 µM

Noted for COC1=C(C(=O)OC(C)(C)C)[C@]2(C)C(C(=O)OC(C)(C)C)C(OC)=C(C(=O)OC(C)(C)C)[C@]2(C)C1C(=O)OC(C)(C)C (some centres not stated) : its TGI reads > 100 µM

Noted for CC(=O)/C=C/c1c[nH]c(=O)[nH]c1=O : its TGI reads 324 µM
